Assignment: determine reported folding enthalpy for the given sequences.
# Method description: folding enthalpy; higher = less favourable; fluorescence melt of hairpins on a sequencing array, two-state fit
# Setup conditions: sodium 0.088 M
One number for each entry, in kJ/mol.

Fill in folding enthalpy for each of the 8 sequences listed.
1. CGCTGTCGGAAACGAGCG (((..(((....))))))
2. GTTTGAGAAATCAAAC ((((((....))))))
3. GATAGGCCGAAAGGCATC (((..(((....))))))
4. GGCGTAACGAAAGTTGCC (((..(((....))))))
5. GGAATGGAAACATTCC ((((((....))))))
6. GCTGTTGGAAACAACAGC (((((((....)))))))
7. GTCGCAGGAAACTGTGGC (.(.(((....))).).)
8. GACAGTGGAAACGTTGTC ((((..(....)..))))

1. -105
2. -116
3. -41.1
4. -106
5. -188
6. -186
7. -125
8. -87.6

Fill in folding enthalpy for each of the 7 sequences listed.
1. GATCATCCAAATGATC ((((((....))))))
2. GATCGAGATCTCGATC ((((((....))))))
3. GCTCATCGAAAGATAGC (((.(((....))))))
4. GCGAAGCGAAAGCTTAGC ((.((((....)))).))
5. GCATGGCGAAAGCCCTGC (((.(((....))).)))
6. GATCTTACGTAAGATC ((((((....))))))
7. GATATTGGAAACAGTATC ((((.((....)).))))

1. -154
2. -212
3. -110
4. -67.3
5. -189
6. -264
7. -51.2

Fill in folding enthalpy for each of the 4 sequences listed.
1. GCGTACCCACGC ((((....))))
2. GTTCACCCGAAAGGGAAC (((..(((....))))))
3. GATCGACTTGTCGATC ((((((....))))))
4. GTTTAGCGAAAGCTCAAC (((.(((....))).)))

[-88.6, -59.7, -181, -86.1]
